Origin of measurements: patent US10584117B2

Biological target: human recombinant HDAC6 (Homo sapiens, UniProt Q9UBN7)
Assay: HDAC enzyme activity inhibition assay (HDAC6, fluorimetric kit)
Conditions: same protocol as the HDAC1 test
Procedure: In order to examine the HDAC6 selectivity of the compounds of formula I of the present invention by HDAC1 and HDAC6 enzymatic activity inhibition assays, an experiment was performed using a conventional substance as a control. HDAC enzyme activity was measured using a HDAC Fluorimetric Drug Discovery Kit (BML-AK511, 516) from Enzo Life Science. […] Based on the resulting values, each IC50 value was calculated using GraphPad Prism4.0 program.
Readout type: pIC50
When answering, recall that pIC50 equals minus log10 of the concentration in mol/L, and write that number alone.

input: Any idea what its pIC50 is? The compound is `CCN1CC(C(=O)N(Cc2ccc(-c3nnc(C(F)F)o3)cc2F)c2cccc(F)c2)C1`
output: 7.24

input: Any idea what its pIC50 is? The compound is `CC(C)N1CCC(C(=O)N(Cc2ccc(-c3nnc(C(F)F)o3)cc2F)c2ccccc2)CC1`
output: 6.62

input: Any idea what its pIC50 is? The compound is `CC(C)C(=O)N1CCC(C(=O)N(Cc2ccc(-c3nnc(C(F)(F)F)o3)cc2)c2ccccc2)CC1`
output: 6.66

input: Any idea what its pIC50 is? The compound is `O=C(c1ccncc1)N(Cc1ccc(-c2nnc(C(F)F)o2)cc1)c1ccccc1`
output: 7.23

input: Any idea what its pIC50 is? The compound is `CC(C)CC(=O)N(Cc1ccc(-c2nnc(C(F)F)o2)cc1F)c1cccc(F)c1`
output: 6.93

input: Any idea what its pIC50 is? The compound is `CCN1CC(C(=O)N(Cc2ccc(-c3nnc(C(F)(F)F)o3)cc2F)c2ccccc2)C1`
output: 7.43

input: Any idea what its pIC50 is? The compound is `CC(C)(C)OC(=O)N1CC(C(=O)N(Cc2ccc(-c3nnc(C(F)(F)F)o3)cc2)c2ccccc2)C1`
output: 6.04

input: Any idea what its pIC50 is? The compound is `CN1CCC(C(=O)N(Cc2ccc(-c3nnc(C(F)(F)F)o3)cc2)c2ccccc2)CC1`
output: 6.68

input: Any idea what its pIC50 is? The compound is `CCC(=O)N1CC(C(=O)N(Cc2ccc(-c3nnc(C(F)(F)F)o3)cc2)c2ccccc2)C1`
output: 7.05

input: Any idea what its pIC50 is? The compound is `CN1CCC(C(=O)N(Cc2ccc(-c3nnc(C(F)(F)F)o3)cc2F)c2ccccc2)CC1`
output: 6.88

input: Any idea what its pIC50 is? The compound is `CC(=O)N(Cc1ccc(-c2nnc(C(F)(F)F)o2)cc1F)c1cccc(F)c1`
output: 7.04

input: Any idea what its pIC50 is? The compound is `CC(=O)N1CCC(C(=O)N(Cc2ccc(-c3nnc(C(F)(F)F)o3)cc2F)c2ccccc2)CC1`
output: 6.84

input: Any idea what its pIC50 is? The compound is `CC(=O)N1CCC(C(=O)N(Cc2ccc(-c3nnc(C(F)F)o3)cc2F)c2ccccc2)CC1`
output: 7.13

input: Any idea what its pIC50 is? The compound is `CC(=O)N1CCN(CC(=O)N(Cc2ccc(-c3nnc(C(F)F)o3)cc2F)c2ccc(F)c(Cl)c2)CC1`
output: 6.80

input: Any idea what its pIC50 is? The compound is `O=C(C1CCS(=O)(=O)CC1)N(Cc1ccc(-c2nnc(C(F)F)o2)cc1F)c1ccc(F)c(Cl)c1`
output: 6.84

* * *

Target: human recombinant HDAC6 (Homo sapiens)
Assay: HDAC enzyme activity inhibition assay (HDAC6, fluorimetric kit)
Details: same protocol as the HDAC1 test
Readout type: pIC50
When answering, recall that pIC50 equals minus log10 of the concentration in mol/L, and write that number alone.

input: Any idea what its pIC50 is? The molecule is O=C(c1ccncc1)N(Cc1ccc(-c2nnc(C(F)F)o2)cn1)c1ccccc1 [Compound 11341]
output: 7.47

input: Any idea what its pIC50 is? The molecule is CCC(=O)N(Cc1ccc(-c2nnc(C(F)F)o2)cc1F)c1cccc(F)c1 [Compound 11356]
output: 7.29

input: Any idea what its pIC50 is? The molecule is CC(C)C(=O)N1CCC(C(=O)N(Cc2ccc(-c3nnc(C(F)(F)F)o3)cc2F)c2ccccc2)CC1 [Compound 11205]
output: 6.52

input: Any idea what its pIC50 is? The molecule is CC(=O)N1CCC(C(=O)N(Cc2ccc(-c3nnc(C(F)(F)F)o3)cc2)c2ccccc2)CC1 [Compound 11161]
output: 6.31

input: Any idea what its pIC50 is? The molecule is CC(C)N1CCC(C(=O)N(Cc2ccc(-c3nnc(C(F)(F)F)o3)cc2)c2ccccc2)CC1 [Compound 11143]
output: 6.66

input: Any idea what its pIC50 is? The molecule is CS(=O)(=O)N1CCC(C(=O)N(Cc2ccc(-c3nnc(C(F)(F)F)o3)cc2)c2ccccc2)CC1 [Compound 11165]
output: 6.90

input: Any idea what its pIC50 is? The molecule is CC(C)N1CCC(C(=O)N(Cc2ccc(-c3nnc(C(F)(F)F)o3)cc2F)c2ccccc2)CC1 [Compound 11202]
output: 6.87

* * *

Biological target: human recombinant HDAC6 (Homo sapiens, UniProt Q9UBN7)
Test: HDAC enzyme activity inhibition assay (HDAC6, fluorimetric kit)
Conditions: same protocol as the HDAC1 test
Procedure: In order to examine the HDAC6 selectivity of the compounds of formula I of the present invention by HDAC1 and HDAC6 enzymatic activity inhibition assays, an experiment was performed using a conventional substance as a control. HDAC enzyme activity was measured using a HDAC Fluorimetric Drug Discovery Kit (BML-AK511, 516) from Enzo Life Science. […] Based on the resulting values, each IC50 value was calculated using GraphPad Prism4.0 program.
Readout type: pIC50
When answering, recall that pIC50 equals minus log10 of the concentration in mol/L, and write that number alone.

input: Any idea what its pIC50 is? The compound is `CC(C)N1CC(C(=O)N(Cc2ccc(-c3nnc(C(F)(F)F)o3)cc2)c2ccccc2)C1`
output: 6.48

input: Any idea what its pIC50 is? The compound is `CC(C)(C)OC(=O)N1CCC(C(=O)N(Cc2ccc(-c3nnc(C(F)(F)F)o3)cc2)c2ccccc2)CC1`
output: 5.56

input: Any idea what its pIC50 is? The compound is `CS(=O)(=O)N1CCN(CC(=O)N(Cc2ccc(-c3nnc(C(F)F)o3)cc2F)c2ccc(F)c(Cl)c2)CC1`
output: 6.83

input: Any idea what its pIC50 is? The compound is `CN1CCC(C(=O)N(Cc2ccc(-c3nnc(C(F)F)o3)cn2)c2ccccc2)CC1`
output: 7.40

* * *

Target: human recombinant HDAC6 (Homo sapiens, UniProt Q9UBN7)
Construct: purchased Calbiochem 382180
Sequence (Q9UBN7 1-1215): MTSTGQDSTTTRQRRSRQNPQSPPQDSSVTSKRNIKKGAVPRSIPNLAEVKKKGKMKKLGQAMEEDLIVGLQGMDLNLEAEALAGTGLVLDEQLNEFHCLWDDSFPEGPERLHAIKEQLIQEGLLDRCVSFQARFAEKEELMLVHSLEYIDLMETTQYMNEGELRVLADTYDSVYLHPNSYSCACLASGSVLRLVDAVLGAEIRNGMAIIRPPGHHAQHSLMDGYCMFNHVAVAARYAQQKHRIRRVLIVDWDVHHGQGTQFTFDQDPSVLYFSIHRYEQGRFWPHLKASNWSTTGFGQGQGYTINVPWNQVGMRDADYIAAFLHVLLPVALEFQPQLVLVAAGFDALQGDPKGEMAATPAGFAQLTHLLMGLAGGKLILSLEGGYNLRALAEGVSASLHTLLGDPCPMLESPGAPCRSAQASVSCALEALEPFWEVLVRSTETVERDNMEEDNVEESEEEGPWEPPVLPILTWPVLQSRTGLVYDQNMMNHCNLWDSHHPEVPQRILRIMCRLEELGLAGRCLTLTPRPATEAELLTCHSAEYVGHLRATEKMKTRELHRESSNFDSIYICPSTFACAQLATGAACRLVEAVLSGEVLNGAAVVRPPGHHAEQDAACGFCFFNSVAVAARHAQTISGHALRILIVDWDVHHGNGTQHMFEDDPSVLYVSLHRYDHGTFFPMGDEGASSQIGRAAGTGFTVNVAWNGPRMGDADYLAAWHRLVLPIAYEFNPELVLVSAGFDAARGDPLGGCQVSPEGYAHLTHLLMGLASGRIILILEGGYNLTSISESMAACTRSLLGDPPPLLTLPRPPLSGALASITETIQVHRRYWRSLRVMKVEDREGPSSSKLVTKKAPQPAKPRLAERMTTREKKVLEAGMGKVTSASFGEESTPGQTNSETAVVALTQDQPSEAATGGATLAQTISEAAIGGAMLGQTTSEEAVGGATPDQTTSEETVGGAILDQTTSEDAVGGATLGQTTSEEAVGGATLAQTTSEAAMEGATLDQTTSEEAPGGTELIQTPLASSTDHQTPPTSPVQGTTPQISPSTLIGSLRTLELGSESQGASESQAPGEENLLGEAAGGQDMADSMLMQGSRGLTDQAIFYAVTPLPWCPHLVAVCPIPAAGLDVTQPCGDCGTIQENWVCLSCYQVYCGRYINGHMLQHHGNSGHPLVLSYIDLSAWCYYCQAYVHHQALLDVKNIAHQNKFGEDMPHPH
Experiment: HDAC enzyme activity inhibition assay (HDAC6, fluorimetric kit)
Assay type: biochemical
Conditions: HDAC6 versus HDAC1
Procedure: In order to examine the HDAC6 selectivity of the compounds of formula I of the present invention by HDAC1 and HDAC6 enzymatic activity inhibition assays, an experiment was performed using a conventional substance as a control. HDAC enzyme activity was measured using a HDAC Fluorimetric Drug Discovery Kit (BML-AK511, 516) from Enzo Life Science. […] Based on the resulting values, each IC50 value was calculated using GraphPad Prism4.0 program.
Could you label it yes (1) if measured HDAC6 selectivity (fold) is 700 fold or higher, and no (0) otherwise?

input: Quick check: does `CN1CC(C(=O)N(Cc2ccc(-c3nnc(C(F)(F)F)o3)cc2F)c2ccccc2)C1` have HDAC6 selectivity (fold) greater than or equal to 700 fold?
output: yes (1)

input: Quick check: does `CC(=O)N1CCN(CC(=O)N(Cc2ccc(-c3nnc(C(F)F)o3)cc2F)c2ccc(F)c(Cl)c2)CC1` have HDAC6 selectivity (fold) greater than or equal to 700 fold?
output: no (0)

input: Quick check: does `CS(=O)(=O)N1CC(C(=O)N(Cc2ccc(-c3nnc(C(F)F)o3)cc2F)c2ccccc2)C1` have HDAC6 selectivity (fold) greater than or equal to 700 fold?
output: yes (1)

input: Quick check: does `CS(=O)(=O)N1CC(C(=O)N(Cc2ccc(-c3nnc(C(F)F)o3)cc2F)c2cccc(F)c2)C1` have HDAC6 selectivity (fold) greater than or equal to 700 fold?
output: yes (1)

input: Quick check: does `CC(=O)N1CC(C(=O)N(Cc2ccc(-c3nnc(C(F)(F)F)o3)cc2F)c2ccccc2)C1` have HDAC6 selectivity (fold) greater than or equal to 700 fold?
output: yes (1)

input: Quick check: does `O=C(C1CCN(C(=O)C(F)(F)F)CC1)N(Cc1ccc(-c2nnc(C(F)(F)F)o2)cc1)c1ccccc1` have HDAC6 selectivity (fold) greater than or equal to 700 fold?
output: no (0)

input: Quick check: does `CS(=O)(=O)N1CCN(CC(=O)N(Cc2ccc(-c3nnc(C(F)F)o3)cc2F)c2ccc(F)c(Cl)c2)CC1` have HDAC6 selectivity (fold) greater than or equal to 700 fold?
output: no (0)
